Source listed as ChEMBL document CHEMBL2021889.

- Tested target: Butyrylcholinesterase (Equus caballus)
- Sequence (Q9N1N9 whole entry): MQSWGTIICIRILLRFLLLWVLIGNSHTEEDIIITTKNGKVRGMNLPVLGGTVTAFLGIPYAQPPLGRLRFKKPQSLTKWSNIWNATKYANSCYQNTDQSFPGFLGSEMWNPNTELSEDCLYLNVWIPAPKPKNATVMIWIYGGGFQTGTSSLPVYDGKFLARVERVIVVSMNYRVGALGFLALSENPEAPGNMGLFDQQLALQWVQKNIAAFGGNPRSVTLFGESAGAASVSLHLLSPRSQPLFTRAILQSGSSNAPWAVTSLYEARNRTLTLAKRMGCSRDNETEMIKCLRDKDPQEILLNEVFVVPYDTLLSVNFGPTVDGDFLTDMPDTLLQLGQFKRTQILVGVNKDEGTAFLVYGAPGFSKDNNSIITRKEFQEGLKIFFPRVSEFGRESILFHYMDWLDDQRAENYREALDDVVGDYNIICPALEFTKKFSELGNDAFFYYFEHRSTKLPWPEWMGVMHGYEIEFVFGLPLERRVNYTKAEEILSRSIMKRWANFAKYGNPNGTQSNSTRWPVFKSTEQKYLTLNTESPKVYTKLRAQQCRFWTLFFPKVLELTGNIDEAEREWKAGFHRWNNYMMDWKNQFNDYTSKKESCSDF
pIC50: −log10 of the molar value.
Endpoint label: pIC50

> print(dat)
                        structure.notation  measured.result
1  C#CCN1CCc2nc3nc(N(C)C)c(C#N)cc3c(N)c2C1           < 4.00
2      C#CCN(C)Cc1cc2cc(OCc3ccccc3)ccc2n1C           < 4.00
3     C#CCN1CCc2nc3nc(OC)c(C#N)cc3c(N)c2C1           < 4.00
